Test: inhibitors of E-selectin induction by TNFa, primary screen, imaging, HUVEC, immunofluorescence, MLSMR starter and 10KST1 sets (AID 487);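 note: 100% = median nuclei count of all wells on the same plate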
Conditions: HUVEC TNFalpha-induced E-selectin immunofluorescence imaging, at 2 µM; measured here: cell number, toxicity
What nuclei count was measured for each of the following?
One number for each entry, in %.

Here are 5 compounds together with their reported answers.
The measured nuclei count associated with CC1CCCCN1CCNS(=O)(=O)c1ccc2c(c1)oc(=O)n2C (stereo unspecified) reads 88.9

Note to self: nuclei count recorded for `COCCCNC(=O)c1c(N)n(/N=C/c2ccccn2)c2nc3ccccc3nc12` was 148

Memo: `C/C(=N/n1cnnc1)c1cccnc1` , reported nuclei count: 140

What the record says about `CC(C)Cc1[nH]c(=O)c(C#N)c2c1COC(C)(C)C2` : nuclei count is 141

The compound listed as Cc1nnc(NC(=O)CSc2nc3c(c(=O)n2C)SC(C)C3)s1 (stereo unspecified) has a reported nuclei count of 104

Can you give me nuclei count for all of these, one by one?
1. COc1cccc(NC(=O)N(Cc2ccco2)C(C)c2cccs2)c1 (stereo unspecified)
2. COCCCn1cnc2c(c1=O)c1nc3ccccc3nc1n2CCc1ccccc1
3. CCOC(=O)NC1(NCc2ccccc2)Oc2ccccc2O1
4. CC(C)COc1ccc(C(=O)NC(CC(C)C)C(=O)O)cc1 (stereo unspecified)
5. CCOc1ccc(NC(=O)C2CC(=O)N(CC)C(=Nc3ccc4c(c3)OCO4)S2)cc1 (stereo unspecified)
6. CN1/C(=C\C(=O)C(F)F)C(C)(C)c2ccccc21

1: 114; 2: 115; 3: 129; 4: 84.1; 5: 113; 6: 116

Please go through the list and note nuclei count for each compound.
1. CC1(C)C2CCC1(C)C(NC(=O)CCN1CCCCC1)C2 (stereo unspecified)
2. Cc1ccc(C)c(C(=O)CC2(O)C(=O)Nc3ccccc32)c1 (stereo unspecified)

1: 163; 2: 126

Could I get nuclei count for every one of these entries?
1. CCCCOn1c(C)c(C(=O)OCC)c2c3nonc3ccc21
2. CC1CC(C)CN(Cc2nc3c(c(=O)n(C)c(=O)n3C)n2Cc2ccccc2Cl)C1 (stereo unspecified)
3. COc1cccc(C(=O)OC2CCCN(C)C2)c1 (stereo unspecified)
4. O=c1c2sc3nc(N4CCOCC4)c4c(c3c2ncn1Cc1ccco1)CCCC4
5. CCN(CC)CCCN1C(=O)C(O)=C(C(C)=O)C1c1cccc(OC)c1 (stereo unspecified)
6. O=C(NCC1CCCO1)c1ccc(C(=O)NCC2CCCO2)cc1 (stereo unspecified)

1. 101
2. 88
3. 141
4. 143
5. 105
6. 94.3

For each listed entry, give its nuclei count.
1. COc1ccc(N(CC(=O)Nc2cc(C)ccc2C)S(=O)(=O)c2c(C)nn(C)c2C)cc1
2. CCN(CC)CCN1C(=O)C(O)=C(C(=O)c2cccs2)C1c1ccc(C)o1 (stereo unspecified)
3. CCOC(=O)c1[nH]c2ccc(OC)cc2c1NC(=O)CCN1CCCC(C)C1 (stereo unspecified)
4. CCCCCSc1nc(C)c(CC(=O)O)c(=O)[nH]1

101
111
100
114

###

Assay: inhibitors of E-selectin induction by TNFa, primary screen, imaging, HUVEC, immunofluorescence, MLSMR starter and 10KST1 sets (AID 487);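 note: 100% = median nuclei count of all wells on the same plate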
Conditions: HUVEC TNFalpha-induced E-selectin immunofluorescence imaging, at 2 µM; measured here: cell number, toxicity
Kindly supply the reported nuclei count values for the records listed here.
One number for each entry, in %.

Record excerpt, results attached:
Data point: `N#Cc1cc2c(nc1SCC(=O)N1CCCCC1)CCCC2` ; nuclei count = 98.7

Entry CC1CCCC(C)N1C(=O)COC(=O)c1ccc[nH]c1=O (stereo unspecified) — recorded nuclei count = 113

The recorded nuclei count for entry CCC1Oc2ccc(C)cc2N(CC(=O)N(Cc2cccnc2)Cc2ccc(C)o2)C1=O (stereo unspecified) equals 103

Value of measured nuclei count for the entry `CC(=O)N(Cc1ccccc1)c1ccc(C(=O)O)cc1` : 95.1

So for CCN(CC)CCN1C(=O)C(=O)/C(=C(/O)c2c(C)[nH]c(C(=O)OC)c2C)C1c1ccccc1 (stereo unspecified) , the logged nuclei count turned out to be 165

List reported nuclei count for each of these compounds:
1. CC(=O)N1CCN(C2c3cccc4cccc(c34)C2NS(=O)(=O)c2ccccc2)CC1 (stereo unspecified)
2. CC1(C)CC(=O)C(C=NCCN2CCN(CCc3ccccc3)CC2)=C(O)C1
3. Cc1c(O)c(CN2CCCC2)cc2c1oc(=O)c1ccccc12

1: 101; 2: 94.1; 3: 77.2

Each compound below has a recorded value; state its nuclei count.
1. CN1CCc2nc(SCCOc3ccccc3)c(C#N)cc2C1
2. Cn1c(=O)n(CC(=O)OCc2ccccc2)c(=O)c2c1nc1n2CCCN1C1CCCCC1
3. COc1ccc2[nH]cc(C(=O)CN(C)CCc3ccc(OC)c(OC)c3)c2c1

[114, 92, 137]
